Documented half-life across a set of compounds
# Condition Description: rat; liver microsomes; pH 7.4; 15.0 min; 1.0 µM

q: Item under review: O=C(CNC(=O)c1cnccn1)NC1CCCc2c1[nH]c1ccc(Cl)cc21 (stereo unspecified) . Reported half-life?
a: > 30 min

Further cases:
q: So what does the record say about half-life for N[C@H]1CN(c2c(F)cc3c(=O)c(C(=O)O)cn(C4C[C@@H]4F)c3c2Cl)CC12CC2 (stereo partly specified) ?
a: > 30 min

q: Look up half-life: O=C(Nc1ccc(N2CCC(N3CCCCC3)CC2)c(C(=O)O)c1)c1ccc(Br)cc1
a: > 30 min

q: Recorded half-life for COc1ccc(OCCN2CCN(C(=O)c3ccc(OC)cc3)CC2)cc1 , please?
a: > 30 min

q: Item under review: COc1ccc(-c2nc3c(c(SCC(=O)Nc4ccc(C(=O)O)cc4)n2)Cc2ccccc2O3)cc1 . Reported half-life?
a: > 30 min

q: Consider the compound Cc1ccc(S(=O)(=O)Nc2cnccc2C(=O)Nc2nc(-c3cccc(Cl)c3)cs2)cc1 and give its measured half-life.
a: > 30 min

---

# Condition Description: rat; liver microsomes; pH 7.4; 15.0 min; 1.0 µM
# reported half-life; entries follow
Write the number in min without appending the unit.

Some compounds with known half-life results, for comparison:
q: Look up half-life: NC(=O)C1CCN(c2nc(-c3ccc(C(F)(F)F)cc3)cs2)CC1
a: 5.39

q: Fill in: half-life of O=S(=O)(Nc1ccc(-c2ccccc2)cc1)c1ccc(NCc2ccc(Br)cc2O)cc1 is ___
a: 21

q: Please give the measured half-life for this compound: COc1ccc(C(=O)Nc2nc(-c3ccccc3)cs2)cc1NS(=O)(=O)c1ccc(C)cc1
a: 13

q: Request the reported half-life associated with CCc1ccc(C2C(C(=O)Nc3ccccc3OC)=C(C)Nc3c(C(=O)Nc4ccc(C)cc4)cnn32)cc1 (stereo unspecified)
a: 2.75

q: Query (compound): Cc1ccccc1C(=O)N1CCc2cc(N3CCC(NC(=O)Cc4ccccc4)C3)ccc21 (stereo unspecified) ; field requested: half-life
a: 11

q: What does the data say about its half-life? Entry: NC1CCC(Nc2nc(Nc3ccc(C(=O)N4CCCCC4)cc3)c3ncn(-c4cccc(F)c4)c3n2)CC1 (stereo unspecified)
a: 23

q: I am curious: what half-life value has been reported for Cc1ccccc1C(=O)N1CCc2cc(-c3ccnc(NC(=O)Cc4ccccc4)n3)ccc21 ?
a: 5.5

q: Value lookup for half-life; key = CSc1ccc(/C=C/c2nc3ccccc3n2S(=O)(=O)c2ccc(Br)cc2)cc1
a: 6.3

Turning to the following compound.
q: Sample CCOc1ccccc1N1CC(c2nc3ccccc3n2CCOc2ccc(C(C)(C)C)cc2)CC1=O (stereo unspecified) — what was its half-life?
a: 2.34

---

# Condition Description: rat; liver microsomes; pH 7.4; 15.0 min; 1.0 µM
Where a SMILES comes first, the peptide text is derived from it. [ ]: non-standard residue; d: D form. ξ: configuration not given here. ξLac(3-iPr) = CC(C)CC(O)C(=O)O; NMeV = CN[CH](C(=O)O)C(C)C; NMeA = CN[CH](C)C(=O)O; βAla = NCCC(=O)O
Listed next: entries and their corresponding log10 of half-life.
Note the log scale: values are log10 of half-life expressed in min.

Before answering, review these 6 worked examples.
q: Fill in the blank: the reported log10 of half-life of Cc1ccc(S(=O)(=O)Nc2cnccc2C(=O)Nc2nc(-c3ccccc3F)cs2)cc1 is ____.
a: 1.00

q: Would you kindly share the measured log10 of half-life for O=C(NCc1cccnc1)c1nc(-c2ccc(Cl)nc2)c2cnccn12 ?
a: 1.42

q: So what's the measured log10 of half-life for this one? CCn1c(C(=O)NCCc2ccc(OC)cc2)cc2sccc21
a: 0.28

q: Would you mind telling me what log10 of half-life value was observed for Cn1cncc1[C@@](N)(c1ccc(Cl)cc1)c1ccc2c(c1)c(-c1cccc(Cl)c1)cc(=O)n2C ?
a: 0.98

q: Any idea what log10 of half-life was measured for CC(=O)c1c(C)n(-c2ccccc2)c2ccc(O)cc12 ?
a: 1.23

q: Return reported log10 of half-life; argument: CCC(C)C1NC(=O)C2CCCN2C(=O)C(CC(C)C)OC(=O)CCNC(=O)C(C)N(C)C(=O)C(C(C)C)N(C)C1=O (configuration not stated) (cyclo([ξLac(3-iPr)]PI[NMeV][NMeA][βAla]); configuration not given here)
a: 1.26

Now, please, on to the next compound.
q: Which log10 of half-life reading was recorded for the compound O=S(=O)(Nc1nccs1)c1ccc(NCc2cccc(Cl)c2Cl)cc1 ?
a: 1.40
